Reference source: patent US8143419B2

molecular target: hα7-wt nAChR (Homo sapiens); construct: expressed in transfected cells; assay: Ca2+ flux imaging (FDSS) (Protocol B), PAM activity with choline as agonist; format: cell-based; conditions: read-out: % efficacy
Sequence (P36544 23-502): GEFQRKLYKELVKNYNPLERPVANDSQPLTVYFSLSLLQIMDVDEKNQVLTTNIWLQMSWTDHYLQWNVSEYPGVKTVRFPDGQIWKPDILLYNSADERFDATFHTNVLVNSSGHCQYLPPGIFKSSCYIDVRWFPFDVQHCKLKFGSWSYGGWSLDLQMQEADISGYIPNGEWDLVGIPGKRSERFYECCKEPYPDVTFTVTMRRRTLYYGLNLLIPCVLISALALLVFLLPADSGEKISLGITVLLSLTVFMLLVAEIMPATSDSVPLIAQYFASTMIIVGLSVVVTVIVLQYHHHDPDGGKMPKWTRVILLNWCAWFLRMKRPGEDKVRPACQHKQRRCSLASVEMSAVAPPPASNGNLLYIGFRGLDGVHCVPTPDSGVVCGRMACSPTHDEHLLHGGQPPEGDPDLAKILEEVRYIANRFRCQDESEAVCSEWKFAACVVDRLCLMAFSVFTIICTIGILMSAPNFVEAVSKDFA
reported_endpoint: Emax (%)

Here's what some known entries look like.
| compound | test_system | Emax [%] |
| --- | --- | --- |
| C[C@H](O)Cn1nc(Nc2ccc(F)c(F)c2)nc1-c1ccc(C(=O)N2CCCC2)nc1 | hα7-wt nAChR (Homo sapiens) | 667 |
| CN(C)C(=O)CCn1nc(Nc2ccc(F)c(C(F)(F)F)c2)nc1-c1ccnc(CN)c1 | hα7-wt nAChR (Homo sapiens) | 772 |
| OCCn1nc(Nc2ccc(F)c(C(F)(F)F)c2)nc1-c1ccc(NC2CC2)nc1 | hα7-wt nAChR (Homo sapiens) | 899 |
| CNC(=O)c1ccc(-c2nc(Nc3ccc(F)c(F)c3)nn2C[C@H](C)O)cn1 | hα7-wt nAChR (Homo sapiens) | 635 |
| CC(C)(O)c1cc(-c2nc(Nc3ccc(F)c(C(F)(F)F)c3)nn2CC(=O)NC2CC2)ccn1 | hα7-wt nAChR (Homo sapiens) | 988 |

(a) Cc1cc(-c2nc(Nc3ccc4c(c3)OC(F)(F)O4)nn2CC(=O)NC2CCOC2)ccn1 (stereo not shown)
(b) CC(C)c1ccc(-c2nc(Nc3cccc(C(F)(F)F)c3)nn2CCO)cn1
Determine, for a and b , which has the greater value of Emax. Refer to your chosen item by its label in the answer. a

(P) CC(=O)c1ccc(-c2nc(Nc3ccc(F)c(F)c3)nn2C[C@H](C)O)cn1
(Q) COc1ccc(-c2nc(Nc3cccc(OC(F)(F)F)c3)nn2CC(=O)NC(C)C)cc1OC
Compare Emax: is it lower for P or for Q ? Refer to your chosen item by its label in the answer. P
